Data provenance is PubChem BioAssay (NCI).

- System: NCI-H460 lung
Outcomes you can answer with include only these: true (active), false (inactive)

A selection of reference data follows.
query-smiles: CCOc1ccc2c(c1)C(=O)c1c-2n(CCCN=[N+]=[N-])c(=O)c2cc([N+](=O)[O-])ccc12
assay-target: NCI-H460 lung
label-value: true
--
query-smiles: O=C1c2ccc3c4c(ccc(c24)C(=O)N1CCNCc1ccccc1)C(=O)N(CCNCc1ccccc1)C3=O
assay-target: NCI-H460 lung
label-value: false
--
query-smiles: CCCCOC(=O)c1c(C)[nH]c(/C=C2\N=C(c3ccc[nH]3)C=C2OC)c1C
assay-target: NCI-H460 lung
label-value: true

IN: Which outcome was entered for the molecule "O=C(Nc1cccc(-n2cc(-c3ccncc3)c(-c3ccc(Cl)c(O)c3)n2)c1)Nc1ccc(Cl)c(Cl)c1" in this test?
OUT: false

IN: Also "COC(=O)Nc1nc2ccc(C(=O)c3ccc(F)cc3)cc2[nH]1" , if possible.
OUT: true

###

Below, each of the compounds is paired with its reported TGI value.
- Tested on: CAKI-1 renal
- test: NCI tumour cell line growth inhibition, 48 h
State the answer as a number, implicitly in µM.

The following compounds have reported results that may help.
query-smiles: COCCCNc1c2ccccc2nc2ccccc12
observed: 3.75
--
query-smiles: CCCCCCc1cc2cc(C(=O)Nc3cccc(F)c3)c(=N)oc2cc1O
observed: 10.2
--
query-smiles: OC(Cc1cc(CC(O)(C(F)(F)F)C(F)(F)F)nc(CC(O)(C(F)(F)F)C(F)(F)F)c1)(C(F)(F)F)C(F)(F)F
observed: 2.31

IN: Data request, read-out TGI, for "COc1cc(N(CCCl)CCCl)ccc1/C=N\NC(=O)c1cccnc1"
OUT: 59.2

IN: Also, "CCCCCCCCCCCCCCCCCCOc1ccccc1COP(=O)(O)OOCC[N+](C)(C)C" please.
OUT: 4.14

###

- System: NCI-H522 lung
- test: NCI tumour cell line growth inhibition, 48 h
We use 30 µM as the dividing line for TGI: on or above the line is t, below is f.

Completed entries (count: 2):
compound: C=C(C)CCC(O)[C@](C)(O)[C@H]1[C@H](O)C[C@@]2(C)[C@@H]3CCc4c(cc(OC5OC(CO)C(O)C(O)C5O)c(O)c4C)C3(C)C(=O)C[C@]12C (stereo partly specified)
assay-target: NCI-H522 lung
label-value: t
--
compound: Cc1c(Cl)c(C)c(Cl)c(O)c1Cl
assay-target: NCI-H522 lung
label-value: t

IN: Quick check: does CCCC(C(=O)OC)C1N=C(NC#N)N(Cc2ccccc2)C1=O (stereo unspecified) have TGI greater than or equal to 30 µM?
OUT: t

###

- System: NCI/ADR-RES ovarian
- test: NCI tumour cell line growth inhibition, 48 h
measurement-kind: TGI

compound: Cn1c(=O)c(Oc2ccc(F)cc2F)cc2cnc(NCC(C)(C)O)nc21
TGI: > 25 µM

compound: O=c1c2cc([N+](=O)[O-])ccc2n2n1CCCCC2
TGI: > 100 µM

IN: Request body: readout TGI, system NCI/ADR-RES ovarian, query "C=C(Br)COc1ccc2c(C)cc(=O)oc2c1" . Return the value.
OUT: > 100 µM

IN: Thanks! And "CN(/N=C/C=N/N(C)C1=NCCN1)C1=NCCN1" ?
OUT: > 100 µM

###

The following molecules are shown together with reported TGI values.
- System: SK-MEL-28 melanoma
- test: NCI tumour cell line growth inhibition, 48 h
Express the result in µM but write the number alone.

Worked set:
molecule: Nc1cc(N)c2nc(NCCc3ccc(Cl)c(Cl)c3)cnc2c1
TGI, µM: 26.2
//
molecule: CC1[C@@H]2CC=C3[C@H]4CCC5Cc6nc7c(nc6C[C@@]5(C)C4CC(=O)[C@]32CO[C@]12OC(C)(C)CC2O)CC1CC[C@@H]2C3=C[C@H]4O[C@@]5(O[C@@](C)(CO)C[C@@H]5O)C(C)[C@@]4(O)[C@]3(C)[C@@H](O)CC2[C@]1(C)C7 (stereo not given in full)
TGI, µM: 0.00273
//
molecule: COc1cc(OC)c(/C=N\Nc2nc3ccccc3c(=O)n2-c2ccccc2)c(OC)c1
TGI, µM: 87.2

IN: # input molecule: "COc1cc(N2CCC(N)CC2)ccc1Nc1ncc(Cl)c(-c2c[nH]c3ccccc23)n1" ; wanted: its TGI
OUT: 2.64

###

- System: PC-3 prostate
- test: NCI tumour cell line growth inhibition, 48 h
measurement-kind: TGI (µM)
I only need the number, in µM, no unit after it.

Known results for molecules:
query-smiles: CCOC(=O)c1cc([N+](=O)[O-])c(Sc2ncnc3nc[nH]c23)c([N+](=O)[O-])c1
assay-target: PC-3 prostate
result-units: µM
TGI: 27.9
--
query-smiles: COCCn1c2c([n+](Cc3cnccn3)c1C)C(=O)c1ccccc1C2=O
assay-target: PC-3 prostate
result-units: µM
TGI: 0.0359

IN: Value wanted: TGI (PC-3 prostate) of entry "O=C(NC(OCc1ccccc1)(C(F)(F)F)C(F)(F)F)OCc1ccccc1"
OUT: 26.7

###

The molecules listed here are annotated with their TGI.
- System: OVCAR-3 ovarian
- test: NCI tumour cell line growth inhibition, 48 h

# count of solved cases: 6
molecule: CCOC(=O)CC1Nc2ccccc2C12CCc1c([nH]c3ccccc13)C2C(=O)OCC (centres undefined)
assay-target: OVCAR-3 ovarian
measurement-kind: TGI
observed: > 100 µM
--
molecule: CC[C@@]1(O)C(=O)OCc2c1cc1n(c2=O)Cc2c-1nc1cc(F)c(C)c3c1c2[C@@H](NC(=O)CO)CC3
assay-target: OVCAR-3 ovarian
measurement-kind: TGI
observed: 1.65 µM
--
molecule: C=C1CC[C@@H]2[C@](C)(COC(=O)CCC(=O)O)CCC[C@@]2(C)[C@@H]1CCC1=CC(=O)OC1
assay-target: OVCAR-3 ovarian
measurement-kind: TGI
observed: > 100 µM
--
molecule: O=C(Nc1cccc(-n2cc(-c3ccncc3)c(-c3ccc(Cl)c(O)c3)n2)c1)Nc1ccc(Cl)c(Cl)c1
assay-target: OVCAR-3 ovarian
measurement-kind: TGI
observed: 3.15 µM
--
molecule: Cc1c(C(=O)c2ccccc2)[n+](=O)c2cc(F)c(F)cc2n1[O-]
assay-target: OVCAR-3 ovarian
measurement-kind: TGI
observed: 3.04 µM
--
molecule: Nc1n[nH]c2ccc([C@@H]3Nc4ccc5cn[nH]c5c4[C@H]4C5CCC(C5)[C@@H]34)cc12 (some centres undefined)
assay-target: OVCAR-3 ovarian
measurement-kind: TGI
observed: 10.9 µM

IN: Requested read-out: TGI. Entry: O=C(OCC(OC(=O)c1ccccc1)C1CC(C2(O)CCCCC2)C(=O)O1)c1ccccc1 (centres undefined)
OUT: > 25 µM

IN: Repeat for the following molecule: "COCCn1c2c([n+](Cc3cnccn3)c1C)C(=O)c1ccccc1C2=O"
OUT: < 0.01 µM

IN: Also need "C=CC(=O)N1CCC[C@@H](n2nc(-c3ccc(Oc4ccccc4)cc3)c3c(N)ncnc32)C1" , thanks.
OUT: > 10 µM

IN: Item: "COc1cc2c(cc1[N+](=O)[O-])C(=O)C(Br)(Br)CCC2"
OUT: 10.5 µM

IN: Also, "Cn1c(=O)cc(Nc2ccc(N)cc2)[nH]c1=O" please.
OUT: > 100 µM

###

TGI values for the compounds below.
- Test system: UACC-62 melanoma
- test: NCI tumour cell line growth inhibition, 48 h

compound: NC(CSCSCC(N)C(=O)O)C(=O)O (stereo unspecified)
TGI: > 225 µM
--
compound: CC(C)c1c(O[Si](C(C)C)(C(C)C)C(C)C)cc2c(c1O)CC[C@H]1C(C)(C)CCC[C@]21C
TGI: > 100 µM
--
compound: N#C/C(=C\c1ccc[nH]1)C(=O)c1ccccc1
TGI: > 100 µM
--
compound: O=C(NN1C(=O)CSC1c1c(Cl)cccc1Cl)C(O)c1ccccc1 (stereo unspecified)
TGI: 43.5 µM
--
compound: O=C(CN1CCN(C(=O)c2ccco2)CC1)Nc1ccc(Cl)cc1C(=O)c1ccccc1Cl
TGI: 23.4 µM
--
compound: O=C(/C=C/C=C/c1ccc2c(c1)OCO2)N/N=C\c1ccc(O)cc1O
TGI: 7.08 µM

IN: Entry under review: COc1ccc([C@@H]2OC(=O)C3C2C(=O)O[C@H]3c2ccc(OC)cc2)cc1 (stereo partly specified) . Reported TGI?
OUT: > 100 µM

IN: Then this compound: O=C1CCC2COc3ccc(O)c1c32 (stereo unspecified)
OUT: > 100 µM

IN: Would you mind doing "CCc1ncc(CO)n1Cc1cccc2ccccc12" as well?
OUT: > 100 µM

IN: Okay, and "C[C@@H]1CC[C@@]2(C)[C@H](C)/C(=C\COC(=O)/C=C/c3ccc(O)c(O)c3)CC[C@@]12C" ?
OUT: 22.1 µM

IN: Quick one: "Cn1c(=S)[nH]c(N)c(Cc2ccccc2)c1=O"
OUT: > 100 µM
